Each recorded value in this set is attributed to paper PMC4814305.

testedSystem: mitochondrial pyruvate carrier (MPC) (Rattus norvegicus, UniProt P38718+P63031)
Sequence (P63031 whole entry): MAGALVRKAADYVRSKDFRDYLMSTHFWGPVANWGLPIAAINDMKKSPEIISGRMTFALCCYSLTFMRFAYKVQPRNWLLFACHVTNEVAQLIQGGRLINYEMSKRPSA
Sequence (P38718 whole entry): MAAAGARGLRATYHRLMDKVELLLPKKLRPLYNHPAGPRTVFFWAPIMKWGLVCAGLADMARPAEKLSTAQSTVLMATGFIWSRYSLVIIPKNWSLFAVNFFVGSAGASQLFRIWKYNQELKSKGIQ
protocolNotes: [1-14C] pyruvate uptake into isolated rat liver mitochondria
valueType: Ki (nM)
Numbers only, in nM.

I'm curious: which Ki was measured for O=C(O)c1nn(Cc2ccc(Cl)cc2Cl)c2ccccc12 [LND, Lonidamine] tested on mitochondrial pyruvate carrier (MPC) (Rattus norvegicus, UniProt P38718+P63031)?
2500
